Target Desc: human CCR8 (HA-tagged) on stably transfected HEK293 cells (human, UniProt P51685 1-355)
Method Summary: flow cytometry on cells
Parameter Measured: IC50 (nM)
One number for each entry, in nM.

Give reported IC50 value for unlabeled human recombinant CCL17 (ligand, UniProt Q92583 24-94, looked up) ARGTNVGRECCLEYFKGAIPLRKLKTWYQTSEDCSRDAIVFVTVQGRAICSDPNNKRVKNAVKYLQSLERS 4.9

Next binder, please.
Tell me its IC50 given unlabeled human recombinant CCL1 (ligand, UniProt P22362 24-96, looked up) KSMQVPFSRCCFSFAEQEIPLRAILCYRNTSSICSNEGLIFKLKRGKEACALDTVGWVQRHRKMLRHCPSKRK as the entry. 0.58
